I'd appreciate it if you could supply binding signal values for the items below.
Molecular target: T1, RBFOX1 RRM (Homo sapiens, UniProt Q9NWB1 109-208)
T1 sequence: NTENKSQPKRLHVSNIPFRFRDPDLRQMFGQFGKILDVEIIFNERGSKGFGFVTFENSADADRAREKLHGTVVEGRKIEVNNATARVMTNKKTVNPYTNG
Experiment: EMSA; HiTS-Eq, 1 nM pool, 10 min; buffer printed only for the single-RNA assays: 10 mM Tris pH 7.5, 150 mM NaCl, 3.4 mM EDTA, 0.001% NP-40, 30 C
Details: tags: His6 N-terminal (pET28a); label: 5' 32P
Over roughly 16,000 sequences, “ka relative to ugcaugu” has its median near 0.0091; the highest 2% begin near 0.032. This excerpt belongs to a sample that is enriched for the highest values.

Lab book: binding signal of CCAGGCU (DNA:RNA) RNA: GGGAGACCGGAAUUCAGAUUGUCCCCAGGCUUUAAAUCCCGUCGUAGCCACCA DNA 1: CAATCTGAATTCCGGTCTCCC DNA 2: TGGTGGCTACGACGGGATT noted as 0.00926 KA relative to UGCAUGU

Lab book: binding signal of CGGGCCC (DNA:RNA) RNA: GGGAGACCGGAAUUCAGAUUGUCCCGGGCCCUUAAAUCCCGUCGUAGCCACCA DNA 1: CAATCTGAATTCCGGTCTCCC DNA 2: TGGTGGCTACGACGGGATT noted as 0.0176 KA relative to UGCAUGU

Lab book: binding signal of GGGGGCC (DNA:RNA) RNA: GGGAGACCGGAAUUCAGAUUGUCCGGGGGCCUUAAAUCCCGUCGUAGCCACCA DNA 1: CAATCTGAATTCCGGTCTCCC DNA 2: TGGTGGCTACGACGGGATT noted as 0.0256 KA relative to UGCAUGU

Lab book: binding signal of GGGUGCA (DNA:RNA) RNA: GGGAGACCGGAAUUCAGAUUGUCCGGGUGCAUUAAAUCCCGUCGUAGCCACCA DNA 1: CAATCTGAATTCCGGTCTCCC DNA 2: TGGTGGCTACGACGGGATT noted as 0.0415 KA relative to UGCAUGU

Lab book: binding signal of UGCAGCA (DNA:RNA) RNA: GGGAGACCGGAAUUCAGAUUGUCCUGCAGCAUUAAAUCCCGUCGUAGCCACCA DNA 1: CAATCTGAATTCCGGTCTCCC DNA 2: TGGTGGCTACGACGGGATT noted as 0.0136 KA relative to UGCAUGU

Lab book: binding signal of UGCAUUC (DNA:RNA) RNA: GGGAGACCGGAAUUCAGAUUGUCCUGCAUUCUUAAAUCCCGUCGUAGCCACCA DNA 1: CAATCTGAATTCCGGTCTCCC DNA 2: TGGTGGCTACGACGGGATT noted as 0.0105 KA relative to UGCAUGU

Lab book: binding signal of GGGGCCC (DNA:RNA) RNA: GGGAGACCGGAAUUCAGAUUGUCCGGGGCCCUUAAAUCCCGUCGUAGCCACCA DNA 1: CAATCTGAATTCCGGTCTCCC DNA 2: TGGTGGCTACGACGGGATT noted as 0.0409 KA relative to UGCAUGU

Lab book: binding signal of CGGUGCA (DNA:RNA) RNA: GGGAGACCGGAAUUCAGAUUGUCCCGGUGCAUUAAAUCCCGUCGUAGCCACCA DNA 1: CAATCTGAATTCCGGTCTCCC DNA 2: TGGTGGCTACGACGGGATT noted as 0.0194 KA relative to UGCAUGU

Lab book: binding signal of AGCAUGU (DNA:RNA) RNA: GGGAGACCGGAAUUCAGAUUGUCCAGCAUGUUUAAAUCCCGUCGUAGCCACCA DNA 1: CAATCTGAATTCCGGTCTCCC DNA 2: TGGTGGCTACGACGGGATT noted as 0.738 KA relative to UGCAUGU

Lab book: binding signal of GGGCCCU (DNA:RNA) RNA: GGGAGACCGGAAUUCAGAUUGUCCGGGCCCUUUAAAUCCCGUCGUAGCCACCA DNA 1: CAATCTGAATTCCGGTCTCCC DNA 2: TGGTGGCTACGACGGGATT noted as 0.00615 KA relative to UGCAUGU

Lab book: binding signal of AGCAUGG (DNA:RNA) RNA: GGGAGACCGGAAUUCAGAUUGUCCAGCAUGGUUAAAUCCCGUCGUAGCCACCA DNA 1: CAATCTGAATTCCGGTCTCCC DNA 2: TGGTGGCTACGACGGGATT noted as 0.347 KA relative to UGCAUGU

Lab book: binding signal of GCGCCAC (DNA:RNA) RNA: GGGAGACCGGAAUUCAGAUUGUCCGCGCCACUUAAAUCCCGUCGUAGCCACCA DNA 1: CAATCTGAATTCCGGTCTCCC DNA 2: TGGTGGCTACGACGGGATT noted as 0.00734 KA relative to UGCAUGU

Lab book: binding signal of UGCAUUG (DNA:RNA) RNA: GGGAGACCGGAAUUCAGAUUGUCCUGCAUUGUUAAAUCCCGUCGUAGCCACCA DNA 1: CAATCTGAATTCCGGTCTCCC DNA 2: TGGTGGCTACGACGGGATT noted as 0.0355 KA relative to UGCAUGU

Lab book: binding signal of GGGCCGU (DNA:RNA) RNA: GGGAGACCGGAAUUCAGAUUGUCCGGGCCGUUUAAAUCCCGUCGUAGCCACCA DNA 1: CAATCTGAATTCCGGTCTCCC DNA 2: TGGTGGCTACGACGGGATT noted as 0.0153 KA relative to UGCAUGU

Lab book: binding signal of UGCUGCA (DNA:RNA) RNA: GGGAGACCGGAAUUCAGAUUGUCCUGCUGCAUUAAAUCCCGUCGUAGCCACCA DNA 1: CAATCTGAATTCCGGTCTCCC DNA 2: TGGTGGCTACGACGGGATT noted as 0.0343 KA relative to UGCAUGU

Lab book: binding signal of AGGCAGA (DNA:RNA) RNA: GGGAGACCGGAAUUCAGAUUGUCCAGGCAGAUUAAAUCCCGUCGUAGCCACCA DNA 1: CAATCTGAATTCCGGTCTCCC DNA 2: TGGTGGCTACGACGGGATT noted as 0.00971 KA relative to UGCAUGU

Lab book: binding signal of CCGUGCA (DNA:RNA) RNA: GGGAGACCGGAAUUCAGAUUGUCCCCGUGCAUUAAAUCCCGUCGUAGCCACCA DNA 1: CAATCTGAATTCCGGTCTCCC DNA 2: TGGTGGCTACGACGGGATT noted as 0.017 KA relative to UGCAUGU

Ref: paper PMC9911399
